Test system: A498 renal
METHOD DESCRIPTION: NCI tumour cell line growth inhibition, 48 h; in the data active = GI50 below about 0.43 µM; inactive = the rest
Classes used: yes (active), no (inactive)

| COMPOUND | ANSWER LABEL |
| --- | --- |
| CC(=O)C1=C(O)C=C2Oc3c(C(=O)/C=C/c4cc(Cl)cc(Cl)c4)c(O)c(C)c(O)c3[C@]2(C)C1=O | yes |
| Oc1c(Cl)cc(Cl)c2ccc(Cn3cc(-c4ccc(C(F)(F)F)cc4)nn3)nc12 | no |
| CCN(CC)CCCC(C)N/C(=C1\C(=O)NC(=O)\C1=C(/NC(C)CCCN(CC)CC)c1cccc(OC)c1)c1cccc(OC)c1 (centres undefined) | no |
| CCOc1ccn(-c2ccc(F)cc2)c(=O)c1C(=O)Nc1ccc(Oc2ccnc(N)c2Cl)c(F)c1 | no |
| CCCCCCCCCC[C@H](O)[C@H](O)CC[C@@H](O)[C@H]1CC[C@@H]([C@H]2CC[C@H](CCCCCCC[C@@H](O)CC3=C[C@H](C)OC3=O)O2)O1 | no |
| C=CCC(N[C@H](CO)c1ccccc1)c1cn(Cc2ccccc2Cl)c(=O)n(Cc2ccccc2Cl)c1=O (some centres undefined) | no |
| CSc1nc2c(c(=O)n1C)CN(C1CCCCC1)C(=O)C(c1ccccc1)N2 (centres undefined) | yes |
| CN1CCN(Cc2ccc(NC(=O)c3cncc(C#Cc4cnc(N)c5cccnc45)c3)cc2C(F)(F)F)CC1 | yes |
| COC(=O)c1cc2c3ccccc3n3c2c(n1)-c1[nH]c2ccccc2c(=O)c1C3 | no |
| Nc1nc(/C=C\c2ccccc2)nc(N2CCN(c3ccccc3)CC2)n1 | no |
| CC(=O)[C@H]1CCC/C=C/[C@@H]2C[C@H](O)C[C@H]2[C@H](O)/C=C/C(=O)O1 | yes |
| CCCCCCCCCCCCOC1C(CNC(=O)C2OC3OC(C)(C)OC3C2NC(=O)CN2CCN(c3ccc(OC)cc3)CC2)OC2OC(C)(C)OC21 (centres undefined) | no |
| Cn1cc(-c2cnn3c(N)c(Br)c(C4CCCNC4)nc23)cn1 (centres undefined) | yes |
| O=C(NCC1CCCO1)c1ccc(NC2=C(Cl)C(=O)N(Cc3ccccc3)C2=O)cc1 (centres undefined) | no |
